tgt: human EDG-2 (Homo sapiens, UniProt Q92633)
Construct: cDNA of the cloned human EDG-2 was introduced into pEFneo, which is an animal expression vector
Sequence (Q92633 whole entry): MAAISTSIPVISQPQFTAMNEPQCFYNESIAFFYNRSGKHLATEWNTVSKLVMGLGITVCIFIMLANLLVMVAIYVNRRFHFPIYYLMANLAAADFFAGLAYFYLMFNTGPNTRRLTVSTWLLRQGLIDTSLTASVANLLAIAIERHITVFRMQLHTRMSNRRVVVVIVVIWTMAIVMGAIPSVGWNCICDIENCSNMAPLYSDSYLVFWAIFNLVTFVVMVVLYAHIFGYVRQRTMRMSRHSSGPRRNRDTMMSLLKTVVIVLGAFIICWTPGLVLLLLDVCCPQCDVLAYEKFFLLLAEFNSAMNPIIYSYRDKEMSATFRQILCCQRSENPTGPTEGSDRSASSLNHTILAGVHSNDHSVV
procedureText: Inhibitory activity on LPA-induced elevation of intracellular Ca2+ level
studyConditions: 50% inhibition of elevation of intracellular Ca2+ level by LPA, human EDG-2/HepG2 cells, fura-2
pIC50: −log10 of the molar value.
endpointName: pIC50

- compound: "Cc1noc(-c2ccccc2F)c1NC(=O)OC(C)c1ccccc1 (stereo not drawn)"
  tgt: "human EDG-2 (Homo sapiens, UniProt Q92633)"
  observed: 5.00
- compound: "C=CCCCOC(=O)Nc1c(-c2ccccc2)noc1C"
  tgt: "human EDG-2 (Homo sapiens, UniProt Q92633)"
  observed: "4.00 to 4.52"
- compound: "Cc1noc(-c2ccncc2)c1NC(=O)OC(C)c1ccccc1 (stereo not drawn)"
  tgt: "human EDG-2 (Homo sapiens, UniProt Q92633)"
  observed: "5.00 to 5.52"
- compound: "Cc1noc(-c2ccc(C#N)cc2)c1NC(=O)OC(c1ccccc1)C(F)(F)F (stereo not drawn)"
  tgt: "human EDG-2 (Homo sapiens, UniProt Q92633)"
  observed: "5.52 to 6.00"
- compound: "Cc1noc(-c2ccc(CNCCc3cccnc3)cc2)c1NC(=O)OC(C)c1ccccc1Cl (stereo not drawn)"
  tgt: "human EDG-2 (Homo sapiens, UniProt Q92633)"
  observed: "4.52 to 5.00"
- compound: "Cc1onc(-c2ccccc2F)c1NC(=O)OC(C)c1ccccc1Cl (stereo not drawn)"
  tgt: "human EDG-2 (Homo sapiens, UniProt Q92633)"
  observed: 5.52
- compound: "Cc1noc(-c2ccc(CSCc3ccco3)cc2)c1NC(=O)OC(C)c1ccccc1Cl (stereo not drawn)"
  tgt: "human EDG-2 (Homo sapiens, UniProt Q92633)"
  observed: "5.00 to 5.52"
- compound: "Cc1noc(-c2ccc(COCc3ccco3)cc2)c1NC(=O)OC(C)c1ccccc1Cl (stereo not drawn)"
  tgt: "human EDG-2 (Homo sapiens, UniProt Q92633)"
  observed: "5.00 to 5.52"
- compound: "Cc1noc(-c2ccc(CCl)cc2)c1NC(=O)OC(C)c1ccccc1F (stereo not drawn)"
  tgt: "human EDG-2 (Homo sapiens, UniProt Q92633)"
  observed: "5.00 to 5.52"
- compound: "Cc1noc(-c2ccc(CNCCc3ccccn3)cc2)c1NC(=O)OC(C)c1ccccc1Cl (stereo not drawn) [Compound 103]"
  tgt: "human EDG-2 (Homo sapiens, UniProt Q92633)"
  observed: 5.00
- compound: "Cc1ccc(-c2onc(C)c2NC(=O)OC(C)c2ccccc2)cc1 (stereo not drawn)"
  tgt: "human EDG-2 (Homo sapiens, UniProt Q92633)"
  observed: 4.52
- compound: "CCCCc1ccc(-c2onc(C)c2NC(=O)OC(C)c2ccccc2)cc1 (stereo not drawn)"
  tgt: "human EDG-2 (Homo sapiens, UniProt Q92633)"
  observed: "4.52 to 5.00"
- compound: "CCOC(=O)CSCc1ccc(-c2onc(C)c2NC(=O)OC(C)c2ccccc2Cl)cc1 (stereo not drawn)"
  tgt: "human EDG-2 (Homo sapiens, UniProt Q92633)"
  observed: "5.00 to 5.52"
- compound: "Cc1noc(-c2cccs2)c1NC(=O)OC(C)c1ccccc1 (stereo not drawn)"
  tgt: "human EDG-2 (Homo sapiens, UniProt Q92633)"
  observed: "5.00 to 5.52"
- compound: "Cc1ccsc1-c1onc(C)c1NC(=O)OC(C)c1ccccc1Cl (stereo not drawn)"
  tgt: "human EDG-2 (Homo sapiens, UniProt Q92633)"
  observed: 5.52

* * *

tgt: human EDG-2 (Homo sapiens)
Construct: cDNA of the cloned human EDG-2 was introduced into pEFneo, which is an animal expression vector
procedureText: Inhibitory activity on LPA-induced elevation of intracellular Ca2+ level
studyConditions: 50% inhibition of elevation of intracellular Ca2+ level by LPA, human EDG-2/HepG2 cells, fura-2
pIC50: −log10 of the molar value.

- compound: "Cc1onc(-c2ccccc2)c1NC(=O)OC(C)c1ccccc1Cl (stereo not drawn)"
  tgt: "human EDG-2 (Homo sapiens)"
  pIC50: 5.52
- compound: "CCSCc1cccc(-c2onc(C)c2NC(=O)OC(C)c2ccccc2Cl)c1 (stereo not drawn)"
  tgt: "human EDG-2 (Homo sapiens)"
  pIC50: 5.52
- compound: "Cc1noc(-c2ccc(OC(F)(F)F)cc2)c1NC(=O)O[C@H](C)c1ccccc1Br"
  tgt: "human EDG-2 (Homo sapiens)"
  pIC50: 5.52
- compound: "Cc1noc(-c2cccc(OC(F)(F)F)c2)c1NC(=O)OC(C)c1ccccc1Cl (stereo not drawn)"
  tgt: "human EDG-2 (Homo sapiens)"
  pIC50: 4.52
- compound: "Cc1noc(-c2ccccc2)c1NC(=O)OC(C)c1ccccc1Cl (stereo not drawn)"
  tgt: "human EDG-2 (Homo sapiens)"
  pIC50: 5.52

* * *

Each entry below lists one item and its recorded pIC50 value.
tgt: human EDG-2 (Homo sapiens)
Construct: cDNA of the cloned human EDG-2 was introduced into pEFneo, which is an animal expression vector
procedureText: Inhibitory activity on LPA-induced elevation of intracellular Ca2+ level
studyConditions: 50% inhibition of elevation of intracellular Ca2+ level by LPA, human EDG-2/HepG2 cells, fura-2
pIC50: −log10 of the molar value.

- molecule: "Cc1noc(-c2ccc(CSC(C)C(=O)O)cc2)c1NC(=O)OC(C)c1ccccc1Cl (centres unmarked)"
  pIC50: "4.52 to 5.00"
- molecule: "COCc1noc(-c2ccccc2)c1NC(=O)OC(C)c1ccccc1Cl (centres unmarked)"
  pIC50: 4.52
- molecule: "Cc1onc(-c2ccccc2)c1NC(=O)OC(C)c1ccccc1Br (centres unmarked)"
  pIC50: 5.00
- molecule: "Cc1noc(-c2ccc(CNCC3CCCO3)cc2)c1NC(=O)OC(C)c1ccccc1Cl (centres unmarked)"
  pIC50: "4.52 to 5.00"
- molecule: "Cc1noc(-c2ccc(OC(F)(F)F)cc2)c1NC(=O)OC(C)c1ccccc1Cl (centres unmarked)"
  pIC50: "5.00 to 5.52"
- molecule: "CCOC(=O)CCNCc1ccc(-c2onc(C)c2NC(=O)OC(C)c2ccccc2Cl)cc1 (centres unmarked)"
  pIC50: "4.52 to 5.00"
- molecule: "Cc1noc(-c2ccc3c(c2)OCO3)c1NC(=O)OC(C)c1ccccc1Cl (centres unmarked)"
  pIC50: 4.52
- molecule: "Cc1noc(-c2ccc(CCl)cc2)c1NC(=O)OC(C)c1ccccc1Cl (centres unmarked)"
  pIC50: "5.52 to 6.00"
- molecule: "CCc1noc(-c2ccc(CSCCC(=O)OC)cc2)c1NC(=O)OC(C)c1ccccc1Cl (centres unmarked)"
  pIC50: "5.00 to 5.52"
- molecule: "Cc1onc(-c2cccc(F)c2)c1NC(=O)OC(C)c1ccccc1Cl (centres unmarked)"
  pIC50: 5.52
- molecule: "Cc1noc(-c2ccncc2)c1NC(=O)OC(C)c1ccccc1Cl (centres unmarked)"
  pIC50: 5.52
- molecule: "CCc1noc(-c2ccccc2)c1NC(=O)OC(C)c1ccccc1Cl (centres unmarked)"
  pIC50: "5.52 to 6.00"
- molecule: "Cc1noc(-c2ccc(OC(F)(F)F)cc2)c1NC(=O)OC(C)c1ccccc1F (centres unmarked)"
  pIC50: 5.52
- molecule: "CCCCSCc1ccc(-c2onc(C)c2NC(=O)OC(C)c2ccccc2Cl)cc1 (centres unmarked)"
  pIC50: "4.52 to 5.00"
- molecule: "Cc1onc(-c2ccccc2)c1NC(=O)O[C@H](C)c1ccccc1"
  pIC50: "4.52 to 5.00"
- molecule: "COc1ccc(-c2onc(C)c2NC(=O)OC(C)c2ccccc2Cl)cc1 (centres unmarked)"
  pIC50: "4.52 to 5.00"
- molecule: "Cc1noc(-c2ccc(CNCCc3ccccn3)cc2)c1NC(=O)OC(C)c1ccccc1Cl (centres unmarked) [Compound 90]"
  pIC50: 5.00
- molecule: "Cc1noc(-c2ccc(CN3CCOCC3)cc2)c1NC(=O)OC(C)c1ccccc1Cl (centres unmarked)"
  pIC50: "5.00 to 5.52"
- molecule: "Cc1onc(-c2ccccc2)c1NC(=O)O[C@H](C)c1ccccc1Br"
  pIC50: "5.00 to 5.52"
- molecule: "Cc1noc(-c2cccc(F)c2)c1NC(=O)OC(C)c1ccccc1 (centres unmarked)"
  pIC50: 5.00
- molecule: "Cc1noc(-c2ccc(CNCc3ccco3)cc2)c1NC(=O)OC(C)c1ccccc1Cl (centres unmarked) [Compound 106]"
  pIC50: "5.00 to 5.52"
- molecule: "CCCSCc1ccc(-c2onc(C)c2NC(=O)OC(C)c2ccccc2Cl)cc1 (centres unmarked)"
  pIC50: "5.00 to 5.52"
- molecule: "Cc1cccc(-c2onc(C)c2NC(=O)OC(C)c2ccccc2)c1 (centres unmarked)"
  pIC50: 4.52
- molecule: "Cc1onc(-c2ccccc2)c1NC(=O)OC1CCc2ccccc21 (centres unmarked)"
  pIC50: "4.00 to 4.52"
- molecule: "Cc1noc(-c2ccccc2)c1NC(=O)O[C@H](C)c1ccccc1Cl"
  pIC50: 5.52
- molecule: "CCc1noc(-c2ccc(C#N)cc2)c1NC(=O)OC(C)c1ccccc1Cl (centres unmarked)"
  pIC50: "5.52 to 6.00"
- molecule: "Cc1noc(-c2cccc(CSCCS(=O)(=O)O)c2)c1NC(=O)OC(C)c1ccccc1Cl (centres unmarked)"
  pIC50: "5.00 to 5.52"
- molecule: "Cc1onc(-c2ccccc2)c1NC(=O)OCCC(C)C"
  pIC50: "4.00 to 4.52"
- molecule: "C=CCSCc1cccc(-c2onc(C)c2NC(=O)OC(C)c2ccccc2Cl)c1 (centres unmarked)"
  pIC50: "5.00 to 5.52"
- molecule: "Cc1noc(-c2ccc(COCc3ccoc3)cc2)c1NC(=O)OC(C)c1ccccc1Cl (centres unmarked)"
  pIC50: "5.00 to 5.52"
- molecule: "Cc1onc(-c2ccc([N+](=O)[O-])cc2)c1NC(=O)OC(C)c1ccccc1Cl (centres unmarked)"
  pIC50: 5.00
- molecule: "CCCCc1ccc(-c2onc(C)c2NC(=O)OC(C)c2ccccc2Cl)cc1 (centres unmarked)"
  pIC50: "4.52 to 5.00"
- molecule: "CCCCCOC(=O)Nc1c(-c2ccccc2)noc1C"
  pIC50: "4.00 to 4.52"
- molecule: "Cc1noc(-c2ccc(CSCC(=O)O)cc2)c1NC(=O)OC(C)c1ccccc1Cl (centres unmarked)"
  pIC50: "5.00 to 5.52"
- molecule: "CCc1noc(-c2ccc(CSCCC(=O)O)cc2)c1NC(=O)OC(C)c1ccccc1F (centres unmarked)"
  pIC50: "5.00 to 5.52"

These measurements were taken from patent US6964975B2.
